tested on: Klebsiella pneumoniae; assay: Antimicrobial activity against Klebsiella pneumoniae ATCC 700603 assessed as reduction in microbial growth incubated for 18 hrs by Mueller-Hinton Broth based microdilution assay; type: functional
Square brackets hold non-standard residues; d marks the D form. Peptide text beside a SMILES is read from it. NMeR = CN[C@@H](CCCNC(=N)N)C(=O)O; NMeL = CN[C@@H](CC(C)C)C(=O)O

# Compound, MIC
measured = [
    ("CC[C@H](C)[C@H](NC(=O)[C@H](CCCNC(=N)N)NC(=O)[C@H](CCCCN)NC(=O)[C@H](CC(C)C)NC(=O)[C@H](CC(C)C)NC(=O)CN)C(=O)N[C@@H](CCCCN)C(=O)N[C@H](C(=O)N(C)[C@@H](CC(C)C)C(=O)N[C@@H](CC(C)C)C(N)=O)[C@@H](C)O (H-GLLKRIKT[NMeL]L-NH2)", "> 128 µM"),
    ("CC[C@H](C)[C@H](NC(=O)[C@H](CCCNC(=N)N)NC(=O)[C@H](CCCCN)NC(=O)[C@H](CC(C)C)N(C)C(=O)[C@H](CC(C)C)N(C)C(=O)CN)C(=O)N[C@@H](CCCCN)C(=O)N[C@H](C(=O)N(C)[C@@H](CC(C)C)C(=O)N(C)[C@@H](CC(C)C)C(N)=O)[C@@H](C)O (H-G[NMeL][NMeL]KRIKT[NMeL][NMeL]-NH2)", "> 128 µM"),
    ("CC[C@H](C)[C@H](NC(=O)[C@H](CCCNC(=N)N)N(C)C(=O)[C@H](CCCCN)NC(=O)[C@H](CC(C)C)NC(=O)[C@H](CC(C)C)NC(=O)CN)C(=O)N[C@@H](CCCCN)C(=O)N[C@H](C(=O)N[C@@H](CC(C)C)C(=O)N[C@@H](CC(C)C)C(N)=O)[C@@H](C)O (H-GLLK[NMeR]IKTLL-NH2)", "> 128 µM"),
]

----------
system: Pseudomonas aeruginosa; assay: Antibacterial activity against Pseudomonas aeruginosa ATCC 27853 assessed as reduction in bacterial growth incubated for 18 hrs by CLSI-based Mueller-Hinton broth dilution method; type: functional

# Smiles code, MIC
records = [
    ("CCCCCCCCC(=O)NCCCC[C@@H](NC(=O)[C@H](CC(C)C)NC(=O)[C@H](CC(C)C)NC(=O)CN)C(=O)N[C@@H](CCCNC(=N)N)C(=O)N[C@H](C(=O)N[C@H](CCCCN)C(=O)N[C@H](C(=O)N[C@@H](CC(C)C)C(=O)N[C@@H](CC(C)C)C(N)=O)[C@@H](C)O)[C@@H](C)CC", "32 µM"),
    ("CCCCCCC(=O)NCCCC[C@@H](NC(=O)[C@H](CC(C)C)NC(=O)[C@H](CC(C)C)NC(=O)CN)C(=O)N[C@@H](CCCNC(=N)N)C(=O)N[C@H](C(=O)N[C@H](CCCCN)C(=O)N[C@H](C(=O)N[C@@H](CC(C)C)C(=O)N[C@@H](CC(C)C)C(N)=O)[C@@H](C)O)[C@@H](C)CC", "64 µM"),
    ("CCCCCCCCCCCCCCCCC(=O)NCCCC[C@@H](NC(=O)[C@H](CC(C)C)NC(=O)[C@H](CC(C)C)NC(=O)CN)C(=O)N[C@@H](CCCNC(=N)N)C(=O)N[C@H](C(=O)N[C@H](CCCCN)C(=O)N[C@H](C(=O)N[C@@H](CC(C)C)C(=O)N[C@@H](CC(C)C)C(N)=O)[C@@H](C)O)[C@@H](C)CC", "64 µM"),
    ("CCCCCCCCCCCCC(=O)NCCCC[C@@H](NC(=O)[C@H](CC(C)C)NC(=O)[C@H](CC(C)C)NC(=O)CN)C(=O)N[C@@H](CCCNC(=N)N)C(=O)N[C@H](C(=O)N[C@H](CCCCN)C(=O)N[C@H](C(=O)N[C@@H](CC(C)C)C(=O)N[C@@H](CC(C)C)C(N)=O)[C@@H](C)O)[C@@H](C)CC", "4 µM"),
    ("CCCCCCCCCCCCCCCCC(=O)NCCCC[C@@H](NC(=O)[C@@H](NC(=O)[C@H](CCCNC(=N)N)NC(=O)[C@@H](CCCCN)NC(=O)[C@H](CC(C)C)NC(=O)[C@H](CC(C)C)NC(=O)CN)[C@@H](C)CC)C(=O)N[C@H](C(=O)N[C@@H](CC(C)C)C(=O)N[C@@H](CC(C)C)C(N)=O)[C@@H](C)O", "64 µM"),
    ("CCCCCCCCCCCCCCC(=O)NCCCC[C@@H](NC(=O)[C@@H](NC(=O)[C@H](CCCNC(=N)N)NC(=O)[C@@H](CCCCN)NC(=O)[C@H](CC(C)C)NC(=O)[C@H](CC(C)C)NC(=O)CN)[C@@H](C)CC)C(=O)N[C@H](C(=O)N[C@@H](CC(C)C)C(=O)N[C@@H](CC(C)C)C(N)=O)[C@@H](C)O", "32 µM"),
    ("CCCCCCCCCCC(=O)NCCCC[C@@H](NC(=O)[C@@H](NC(=O)[C@H](CCCNC(=N)N)NC(=O)[C@@H](CCCCN)NC(=O)[C@H](CC(C)C)NC(=O)[C@H](CC(C)C)NC(=O)CN)[C@@H](C)CC)C(=O)N[C@H](C(=O)N[C@@H](CC(C)C)C(=O)N[C@@H](CC(C)C)C(N)=O)[C@@H](C)O", "4 µM"),
    ("CCCCCCC(=O)NCCCC[C@@H](NC(=O)[C@@H](NC(=O)[C@H](CCCNC(=N)N)NC(=O)[C@@H](CCCCN)NC(=O)[C@H](CC(C)C)NC(=O)[C@H](CC(C)C)NC(=O)CN)[C@@H](C)CC)C(=O)N[C@H](C(=O)N[C@@H](CC(C)C)C(=O)N[C@@H](CC(C)C)C(N)=O)[C@@H](C)O", "32 µM"),
]

----------
test system: Bacillus subtilis; assay: Antibacterial activity against Bacillus subtilis ATCC 23857 assessed as reduction in bacterial cell growth measured for 18 hrs by Mueller-Hinton broth based two-fold serial dilution method; format: functional
Square brackets hold non-standard residues; d marks the D form. Peptide text beside a SMILES is read from it. * marks the point of attachment. Pentadecanoyl = CCCCCCCCCCCCCCC(=O)*; NMeI = CC[C@H](C)[C@H](NC)C(=O)O; Tridecanoyl = CCCCCCCCCCCCC(=O)*; NMeL = CN[C@@H](CC(C)C)C(=O)O; Undecanoyl = CCCCCCCCCCC(=O)*; NMeK = CN[C@@H](CCCCN)C(=O)O; Nonanoyl = CCCCCCCCC(=O)*
Quick reference: MIC of the listed items.
Measured metric: MIC

# Molecule, Measurement
data = [
    ("CCCCCCCCCCCCCCC(=O)NCC(=O)N[C@@H](CC(C)C)C(=O)N[C@@H](CC(C)C)C(=O)N(C)[C@@H](CCCCN)C(=O)N[C@@H](CCCNC(=N)N)C(=O)N[C@H](C(=O)N(C)[C@@H](CCCCN)C(=O)N[C@H](C(=O)N[C@@H](CC(C)C)C(=O)N[C@@H](CC(C)C)C(N)=O)[C@@H](C)O)[C@@H](C)CC (Pentadecanoyl-GLL[NMeK]RI[NMeK]TLL-NH2)", "8 µM"),
    ("CCCCCCCCCCCCCCC(=O)NCC(=O)N[C@@H](CC(C)C)C(=O)N[C@@H](CC(C)C)C(=O)N[C@@H](CCCCN)C(=O)N[C@@H](CCCNC(=N)N)C(=O)N[C@H](C(=O)N[C@@H](CCCCN)C(=O)N[C@H](C(=O)N[C@@H](CC(C)C)C(=O)N[C@@H](CC(C)C)C(N)=O)[C@@H](C)O)[C@@H](C)CC (Pentadecanoyl-GLLKRIKTLL-NH2)", "8 µM"),
    ("CCCCCCCCC(=O)NCC(=O)N[C@@H](CC(C)C)C(=O)N[C@@H](CC(C)C)C(=O)N[C@@H](CCCCN)C(=O)N[C@@H](CCCNC(=N)N)C(=O)N[C@H](C(=O)N[C@@H](CCCCN)C(=O)N[C@H](C(=O)N[C@@H](CC(C)C)C(=O)N[C@@H](CC(C)C)C(N)=O)[C@@H](C)O)[C@@H](C)CC (Nonanoyl-GLLKRIKTLL-NH2)", "4 µM"),
    ("CCCCCCCCCCCCCCC(=O)NCC(=O)N[C@@H](CC(C)C)C(=O)N(C)[C@@H](CC(C)C)C(=O)N[C@@H](CCCCN)C(=O)N[C@@H](CCCNC(=N)N)C(=O)N(C)[C@H](C(=O)N[C@@H](CCCCN)C(=O)N[C@H](C(=O)N[C@@H](CC(C)C)C(=O)N[C@@H](CC(C)C)C(N)=O)[C@@H](C)O)[C@@H](C)CC (Pentadecanoyl-GL[NMeL]KR[NMeI]KTLL-NH2)", "4 µM"),
    ("CCCCCCCCCCC(=O)NCC(=O)N[C@@H](CC(C)C)C(=O)N[C@@H](CC(C)C)C(=O)N[C@@H](CCCCN)C(=O)N[C@@H](CCCNC(=N)N)C(=O)N[C@H](C(=O)N[C@@H](CCCCN)C(=O)N[C@H](C(=O)N[C@@H](CC(C)C)C(=O)N[C@@H](CC(C)C)C(N)=O)[C@@H](C)O)[C@@H](C)CC (Undecanoyl-GLLKRIKTLL-NH2)", "4 µM"),
    ("CCCCCCCCCCCCC(=O)NCC(=O)N[C@@H](CC(C)C)C(=O)N[C@@H](CC(C)C)C(=O)N[C@@H](CCCCN)C(=O)N[C@@H](CCCNC(=N)N)C(=O)N[C@H](C(=O)N[C@@H](CCCCN)C(=O)N[C@H](C(=O)N[C@@H](CC(C)C)C(=O)N[C@@H](CC(C)C)C(N)=O)[C@@H](C)O)[C@@H](C)CC (Tridecanoyl-GLLKRIKTLL-NH2)", "4 µM"),
    ("CCCCCCCCCCC(=O)NCC(=O)N[C@@H](CC(C)C)C(=O)N[C@@H](CC(C)C)C(=O)N(C)[C@@H](CCCCN)C(=O)N[C@@H](CCCNC(=N)N)C(=O)N[C@H](C(=O)N(C)[C@@H](CCCCN)C(=O)N[C@H](C(=O)N[C@@H](CC(C)C)C(=O)N[C@@H](CC(C)C)C(N)=O)[C@@H](C)O)[C@@H](C)CC (Undecanoyl-GLL[NMeK]RI[NMeK]TLL-NH2)", "4 µM"),
]
